Molecular target: Gonadotropin-releasing hormone receptor (Rattus norvegicus)
Assay: Antagonist activity at LH-RH receptor in Sprague-Dawley rat pituitary gland assessed as change in LHRH-stimulated FSH release at 100 ug/ml preincubated for 4 hrs followed by LH-RH addition at 5th and 6th hr 5 mins post compound addition and measured for 6 hrs by RIA
Result Type: Activity (ng/mL)
Please reply with the bare figure in ng/mL and do not write the unit itself.

In: Data request, read-out Activity, for CC[C@H](C)[C@H](NC(=O)[C@@H](Cc1ccccc1)NC(=O)[C@@H]1CCC(=O)N1)C(=O)N[C@@H](CO)C(=O)N[C@@H](Cc1ccc(O)cc1)C(=O)N[C@H](Cc1c[nH]c2ccccc12)C(=O)N[C@@H](CC(C)C)C(=O)N[C@@H](CCCNC(=N)N)C(=O)N1CCC[C@H]1C(=O)NCC(N)=O
Out: 645

In: Also CC(C)C[C@H](NC(=O)[C@@H](Cc1ccccc1)NC(=O)[C@H](Cc1ccc(O)cc1)NC(=O)[C@H](CO)NC(=O)[C@@H](NC(=O)[C@@H](Cc1ccccc1)NC(=O)[C@@H]1CCC(=O)N1)[C@@H](C)O)C(=O)N[C@@H](CCCNC(=N)N)C(=O)N1CCC[C@H]1C(=O)NCC(N)=O , if possible.
Out: 379

In: Would you kindly repeat that for CSCC[C@H](NC(=O)[C@@H](Cc1ccccc1)NC(=O)[C@@H]1CCC(=O)N1)C(=O)N[C@@H](CO)C(=O)N[C@@H](Cc1ccc(O)cc1)C(=O)N[C@H](Cc1c[nH]c2ccccc12)C(=O)N[C@@H](CC(C)C)C(=O)N[C@@H](CCCNC(=N)N)C(=O)N1CCC[C@H]1C(=O)NCC(N)=O ?
Out: -672

In: Likewise for CC(C)C[C@H](NC(=O)[C@@H](Cc1c[nH]c2ccccc12)NC(=O)[C@H](Cc1ccc(O)cc1)NC(=O)[C@H](CO)NC(=O)[C@@H](Cc1ccccc1)NC(=O)[C@@H](Cc1ccccc1)NC(=O)[C@@H]1CCC(=O)N1)C(=O)N[C@@H](CCCNC(=N)N)C(=O)N1CCC[C@H]1C(=O)NCC(N)=O ?
Out: -814
